The values you see were collected from BigSolDB 2.1.

# RECORDED_CONDITIONS: in ethylene glycol, 293.15 K
MEASURED_PARAMETER: solubility (mole fraction)
Lab note: jot down the number only; don't add units.

Req: Name the recorded solubility (mole fraction) of the item O.O=C1NC(=O)C(=O)C(=O)N1 in your answer.
Resp: 0.0113

###

# RECORDED_CONDITIONS: in THF, 313.15 K
MEASURED_PARAMETER: solubility (mole fraction)
Lab note: jot down the number only; don't add units.

Req: Name the recorded solubility (mole fraction) of the item O.O=C1NC(=O)C(=O)C(=O)N1 in your answer.
Resp: 0.084

###

# RECORDED_CONDITIONS: in methanol, 313.15 K
MEASURED_PARAMETER: solubility (mole fraction)
Lab note: jot down the number only; don't add units.

Req: Name the recorded solubility (mole fraction) of the item O.O=C1NC(=O)C(=O)C(=O)N1 in your answer.
Resp: 0.155
